Assay Explanation: soluble on expression in E. coli; label from the status in PepcDB or PDB records
Parameter: soluble on expression in E. coli

Chain	Readout Value
MQLKRVAEAKLPTPWGDFLMVGFEEIATGHDHLALVYGDISGSVPVLARVHSECLTGDALFSLRCDCGFQLEAALGHIAEEGRGVLLYHRQEGRNIGLLNKIRAYALQDLGADTVEANHQLGFAADERDFTLCADMFKLLDVDEVRLLTNNPQKVKILNEAGINIVERVPLIVGRNPKNEHYLATKAAKMGHILDMKLEHHHHHH	not soluble
MGSDKIHHHHHHMPSTFESQLFFSRPFLSKRQIQRAQKNTISDYRNYNQKKLAVFKFLSDLCVQLKFPRKTLETAVYFYQRYHLFNRFETEVCYTVATSCLTLGCKEVETIKKTNDICTLSLRLRNVVKINTDILENFKKRVFQIELRILESCSFDYRVNNYVHIDEYVIKIGRELSFDYKLCNLAWVIAYDALKLETILVIPQHSIALAILKIAYELLDNKNWSSKRYSLFETDEKSVNEAYFDIVNFYINSFDMCDLQRHLPADLLPIGVERFMELKKNAGPESGLPQIPDHLLNADPYITITRDNNVQERRYVLSLELINGESSINSSTRHA	not soluble

====

Assay Explanation: soluble on expression in E. coli; label from the status in PepcDB or PDB records
Parameter: soluble on expression in E. coli

Worked set:
Chain	soluble on expression in E. coli
MGHHHHHHSHMKPHFRNTVERMYRDTFSYNFYNRPILSRRNTVWLCYEVKTKGPSRPRLDAKIFRGQVPRSFIRAPFQVLSSPFGQCAPPHGTAQVQWPPQLTAGREQGRP	not soluble
GPGSMQIRRATMEDMYQMQHCNLRCLPENYNLRYYFYHILSWPQLLYVQEDYNRNIVGYVLAKMEDEEKPANIHGHITSIAVLRTHRRLGIASRVMRASMKEMEKEYDANYCSLHVRKTNDAALHLYQETLGFRCANVEKGYYVDEEDAFHMKKFFKGPNPGLYVAANRQLVRQQNSAAAAVTGMAALQRNGGTAPPPPPPSSSSAGGQRGENDTADLEKEQLKLVAELLEESNKESGKGRQQKQKQQQQSKGGNKRGKTKK	soluble
QPAHSLWLDLTQGEEALLKGMKEMHRRNARLALKRVALSVEGEEAFAEFYRLFTETNRRARLLQHDEAYYRAVLKEMNQPLGEAFLALARKDGEALAAGLFVAFAGKVAYLYGGSTRKHPEAKAPMGMHLAAIRHGMARGYRVYDLWGIPKNPRGSHAEGIHRFKEGFGGQRVQFPA	not soluble
ADVTITVNGKVVAKPCTVSTTNATVDLGDLYSFSLMSAGAASAWHDVALELTNCPVGTSRVTASFSGAADSTGYYKNQGTAQNIQLELQDDSGNTLNTGATKTVQVDDSSQSAHFPLQVRALTVNGGATQGTIQAVISITYTYS	soluble
MLKDQANQLEFPRDFLGISLADQPNKYYFIIRTQRIVLEADSSIQLIMEKLQSYKSKVALYFDGFQYQLGDFRLRVGKVVPTHSENVRGIVMEVEYLPISSMEKAQKVMEEFLEIWNEALAKRSLPGKFVNIDLNFGEFGLGDIYTPQHTAVRYALVMAHMIATVQAVRG	soluble

Notebook: "TRNFEWIVGGNITRSRDKIKSLGGEEQIVLSYDNGVQMVNRVGESPYQFYGYQADGVYSTQAEADAANLSNRTGRRYNAGDVRFVDQNGDNRIDDKDRILLGSAAPSYFGGFYTQLKYKGFALSAEFSYSKDNIAYNAVRQQLEAVSTTNNQSIAAVNRWTVEGQKTDMPKATWKDPVGNSYFSSRWMEDASYLRMKNVTLSYTFSKTLWNFFRSGTIYVTGENLLTFTDYLGMDPEFSYSYAENMQGFDNAKLMQPKTVKMGVNLKF" , soluble on expression in E. coli read as not soluble

Notebook: "MNIFAILNHMGVFFKEEPVRQLHAALEKAGYEVVYPVDDKDLIKMIEMNPRICGVLFDWDKYSLELCERISQINEKLPVHAFANEQSTLDISLTDLRLNVSFFEYALGMADDI" , soluble on expression in E. coli read as not soluble

Notebook: "MMLCFQEVALNGGNILSKFTERLLTILYPPICPGCKQRVSAYGTICSECWKDLQFITKPYCPVMGVPFVYDMGDGFLSGEALQNSLPFSRVRSVIVHKGVAQSLVTRLKYGDHVELASFMANWMVSAGREIVDDCDIIISVPLHFRRFLKRRYNQSAELARYIARVQKKEFKPGWLVRCRHTRPQVNLSARERKLNVLNAFEVPRKVKKYLKGRSILLIDDVFTTGATVTAAAATLKRAGARQVDVLTFSRVLKEASIFPNS" , soluble on expression in E. coli read as not soluble

====

Assay Explanation: soluble on expression in E. coli; label from the status in PepcDB or PDB records

Chain	soluble on expression in E. coli
MNASLSSDIAPYIPTLIQQLPIIEEIKTHLPQVLPDYSADEIHATAIASVGMYLADIDYGIRQAIAPEVTPLELRQKLSAYKIELFKRIYNIQFLQPPSTPIGGLELMQQAFKTYKRLLTTLAKAYNLRLPKGILLEHHHHHH	not soluble
MAGGFGVGKTTFVGAVSEIAPLSTEELLTTVGAATDNLDGIENKVETTVAMDFGRITLDPEHVLYLFGTPGQQRFWFMWDELSEGALGAVILADTRRLEDCFAAVDFFEQRGLAFIVAINDFDGGYRYDPAEVRAAIDLDPHIPVVRCDARISSSGVQTLLTLVRHLLAHAPATAPSHGAHTLEHHHHHH	not soluble

====

Assay Explanation: soluble on expression in E. coli; label from the status in PepcDB or PDB records
Parameter: soluble on expression in E. coli

Chain	Readout Value
MSLSPAPTTMDFTPAPLEDTSSRPQFCKWPCECPPSPPRCPLGVSLITDGCECCKMCAQQLGDNCTEAAICDPHRGLYCDYSGDRPRYAIGVCAQVVGVGCVLDGVRYNNGQSFQPNCKYNCTCIDGAVGCTPLCLRVRPPRLWCPHPRRVSIPGHCCEQWVCEDDAKRPRKTAPRDTGAFDAVGEVEAWHRNCIAYTSPWSPCSTSCGLGVSTRISNVNAQCWPEQESRLCNLRPCDVDIHTLIKAGKKCLAVYQPEASMNFTLAGCISTRSYQPKYCGVCMDNRCCIPYKSKTIDVSFQCPDGLGFSRQVLWINACFCNLSCRNPNDIFADLESYPDFSEIANEGHHHHHH	not soluble
MEQPQEEAPEVREEEEKEEVAEAEGAPELNGGPQHALPSSSYTDLSRSSSPPSLLDQLQMGCDGASCGSLNMECRVCGDKASGFHYGVHACEGCKGFFRRTIRMKLEYEKCERSCKIQKKNRNKCQYCRFQKCLALGMSHNAIRFGRMPEAEKRKLVAGLTANEGSQYNPQVADLKAFSKHIYNAYLKNFNMTKKKARSILTGKASHTAPFVIHDIETLWQAEKGLVWKQLVNGLPPYKEISVHVFYRCQCTTVETVRELTEFAKSIPSFSSLFLNDQVTLLKYGVHEAIFAMLASIVNKDGLLVANGSGFVTREFLRSLRKPFSDIIEPKFEFAVKFNALELDDSDLALFIAAIILCGGE	soluble
MGSDKIHHHHHHVTLDQLLMFRTVAEAGSLKAASNKLHKTQPAISQSIKQLESQLDLILFNREGYRLAITEQGRKLLQHTLRVLNEAQEMKQVAKHLAKGNEASITLAFEASFNLARILPILELTQNEFPYTQIILKQEFLTGALEALNQDKAEIIISAGGIEPIRSSHLELAYLFSGSLLDVAAPRLLSRYPNLSHVRELVNEYQIVIQDTGTGTANIEFGVQAGQRRWYVNDFYTKKMLIQSGMGWGKLPHYMIEDSLKQGALIALDLRERQNNIQLDYYVMRKPHSPLGPVAQALWQKLIAFSLS	not soluble
MSLGEKTKLEQIKDNGKLVVGTSAEFPPFEFHKVVDGKDSIKGFDIMLAEEFAKELGVKVEIKDMSFDGLIGALNADQVDIVLAGMSPTPEREKSVDFSELYYLSRNAVIVKDADIDKVKTEDDLKKLRVGVQAGSIQEEYVVNTLKMTTTKSLKAIPDLITELKNGNIDAVVTNEAVSLINVKKYDGIKMANTEVGKDVTEGMAAAIKKSDNNKDFIELLNKKIKELQDGKKIEEFLNEASTEAASEGHHHHHH	soluble

Let us move to another entry and its soluble on expression in E. coli.
Notebook: "MVISLKNRNFLKLLDYTPAEIQHLIDLAIELKAAKKAGCEKQTLIGKNIALIFEKTSTRTRCAFEVAAFDQGAQVTYLGPSGSQIGHKESMKDTARVLGRMYDGIEYRGFGQHIVEELGEYAGVPVWNGLTDEFHPTQILADLMTMLEHAPGKTLPELSFAYLGDARNNMGNSLMVGAAKMGMDIRLIAPKSFWPDAALVAQCREIASVTGARITLTESVEDGVHGVDFLYTDVWVSMGEPKEAWAERVSLMTPYQVNQQVVNATGNPDVKFMHCLPAFHNEHTKVGREIEMAYGLKGLEVTEEVFESAGSIVFDEAENRMHTIKAVMVATLGD" , soluble on expression in E. coli read as not soluble

The origin of these recorded values is the DeepSol protein solubility set.
